Data origin: PubChem BioAssay AID1745847

method notes: CMV-Luciferase Counterscreen for Inhibitors of ATXN expression; further: on the % scale 0 is the no-effect control and ±100 the full control effect; nearly all actives have a fitted effect of over 55% in size
assay setup: HEK-293 CMV-luciferase reporter, luminescence, 24 h; series mostly up to 57.5 µM
Screen size: about 2,100 compounds; about 670 (32%) were called active. Roughly 50% stayed inconclusive and do not appear here. The list shows a part of the results.
Exercise: state measured activity change, negative = inhibition for each of the compounds provided.

compound | activity change, negative = inhibition
COc1cc2cc(C(=O)NC(C)c3cccc4ccccc34)c(N)nc2cc1OC (stereo not given) | -29.5% [at 11.4 µM] (inactive)
COc1cc(C(=O)OC(C)C(=O)N2CCc3ccccc3C2)ccc1OCC(=O)N1CCOCC1 (stereo not given) | -9.5% [at 11.4 µM] (inactive)

Answer for every listed entry: what is its activity change, negative = inhibition? The entries follow.
1. Oc1ccc(C[C@@H]2CNCCN2CCc2cc(C(F)(F)F)cc(C(F)(F)F)c2)cc1
2. O=C(Nc1nc(-c2ccc(F)c(F)c2)cs1)Nc1ccc(F)cc1F
3. O=C(NC(=S)NCc1nc2ccccc2[nH]1)c1ccc(F)cc1
4. Cc1ccc2[nH]c(O)c(N=NC(=O)C3CC3c3ccccc3)c2c1Br (stereo not given)
5. OC1(c2ccc(Cl)cc2)CCN(Cc2c[nH]c3ccccc23)CC1
6. CN(C)c1ccc(Cc2cc3c(O)ccc(O)c3cc(Cc3ccc(N(C)C)cc3)c2=O)cc1
7. COc1cc2c3nnc(-c4ccc(F)cc4)c-3cn(Cc3ccc(F)cc3)c2cc1OC

["-21.2% [at 11.4 µM] (inactive)", "6.09% [at 11.4 µM] (inactive)", "290% [at 11.4 µM] (inactive)", "-21.9% [at 11.4 µM] (inactive)", "-23.5% [at 11.4 µM] (inactive)", "-9.62% [at 11.4 µM] (inactive)", "-11.8% [at 11.4 µM] (inactive)"]

Answer for every listed entry: what is its activity change, negative = inhibition? The entries follow.
1. CNc1ccccc1C(=O)OC(C)C(=O)Nc1ccc(Cl)cn1 (stereo not given)
2. COc1ccc(/C=N/NC(=O)c2cccc([N+](=O)[O-])c2)c2ccccc12
3. CC(C)C[C@H](N)c1cn([C@@H](CCCCN)C(=O)N2CCNCC2)nn1
4. Oc1ccc(CN2CCC(Cc3ccccc3)CC2)c2cccnc12
5. CN(C)C(=O)c1cccc(-c2cnc3c(NC=O)cc(-c4ccc(F)cc4)cn23)c1
6. COc1ccc(/C(N)=N/OC(=O)N2CCOCC2)cc1

1: 94.6% [at 11.4 µM] (inactive); 2: -1.17% [at 11.4 µM] (inactive); 3: -7.7% [at 11.4 µM] (inactive); 4: -19.8% [at 11.4 µM] (inactive); 5: 49.3% [at 11.4 µM] (inactive); 6: 20.7% [at 11.4 µM] (inactive)

---

method notes: CMV-Luciferase Counterscreen for Inhibitors of ATXN expression; further: on the % scale 0 is the no-effect control and ±100 the full control effect; nearly all actives have a fitted effect of over 55% in size
assay setup: HEK-293 CMV-luciferase reporter, luminescence, 24 h; series mostly up to 57.5 µM
The campaign covered roughly 2,100 compounds. About 670 (32%) were called active. About 50% were inconclusive and are not listed. The list shows a part of the results.
readout type: activity change, negative = inhibition

compound | activity change, negative = inhibition
N#C/C(=C\Nc1ccc2cn[nH]c2c1)c1nc(-c2ccc(Cl)cc2)cs1 | 11% [at 11.4 µM] (inactive)
CNc1ccc(Br)cc(C(=O)/C=C/c2ccc3c(c2)OCO3)c1=O | -5.4% [at 11.4 µM] (inactive)

Answer for every listed entry: what is its activity change, negative = inhibition? The entries follow.
1. NC(Cc1ccc(C(F)(F)F)cc1)c1csc(Nc2ccc(C(=O)NCc3ccco3)cn2)n1 (configuration not stated)
2. Cc1ccc(C)n1-c1ccc(C(=O)N2CCC(C(N)=O)CC2)cc1

-23.4% [at 11.4 µM] (inactive)
4.95% [at 11.4 µM] (inactive)
